Molecular target: human Cav2.2 (Homo sapiens, UniProt Q00975)
Sequence (Q00975 whole entry): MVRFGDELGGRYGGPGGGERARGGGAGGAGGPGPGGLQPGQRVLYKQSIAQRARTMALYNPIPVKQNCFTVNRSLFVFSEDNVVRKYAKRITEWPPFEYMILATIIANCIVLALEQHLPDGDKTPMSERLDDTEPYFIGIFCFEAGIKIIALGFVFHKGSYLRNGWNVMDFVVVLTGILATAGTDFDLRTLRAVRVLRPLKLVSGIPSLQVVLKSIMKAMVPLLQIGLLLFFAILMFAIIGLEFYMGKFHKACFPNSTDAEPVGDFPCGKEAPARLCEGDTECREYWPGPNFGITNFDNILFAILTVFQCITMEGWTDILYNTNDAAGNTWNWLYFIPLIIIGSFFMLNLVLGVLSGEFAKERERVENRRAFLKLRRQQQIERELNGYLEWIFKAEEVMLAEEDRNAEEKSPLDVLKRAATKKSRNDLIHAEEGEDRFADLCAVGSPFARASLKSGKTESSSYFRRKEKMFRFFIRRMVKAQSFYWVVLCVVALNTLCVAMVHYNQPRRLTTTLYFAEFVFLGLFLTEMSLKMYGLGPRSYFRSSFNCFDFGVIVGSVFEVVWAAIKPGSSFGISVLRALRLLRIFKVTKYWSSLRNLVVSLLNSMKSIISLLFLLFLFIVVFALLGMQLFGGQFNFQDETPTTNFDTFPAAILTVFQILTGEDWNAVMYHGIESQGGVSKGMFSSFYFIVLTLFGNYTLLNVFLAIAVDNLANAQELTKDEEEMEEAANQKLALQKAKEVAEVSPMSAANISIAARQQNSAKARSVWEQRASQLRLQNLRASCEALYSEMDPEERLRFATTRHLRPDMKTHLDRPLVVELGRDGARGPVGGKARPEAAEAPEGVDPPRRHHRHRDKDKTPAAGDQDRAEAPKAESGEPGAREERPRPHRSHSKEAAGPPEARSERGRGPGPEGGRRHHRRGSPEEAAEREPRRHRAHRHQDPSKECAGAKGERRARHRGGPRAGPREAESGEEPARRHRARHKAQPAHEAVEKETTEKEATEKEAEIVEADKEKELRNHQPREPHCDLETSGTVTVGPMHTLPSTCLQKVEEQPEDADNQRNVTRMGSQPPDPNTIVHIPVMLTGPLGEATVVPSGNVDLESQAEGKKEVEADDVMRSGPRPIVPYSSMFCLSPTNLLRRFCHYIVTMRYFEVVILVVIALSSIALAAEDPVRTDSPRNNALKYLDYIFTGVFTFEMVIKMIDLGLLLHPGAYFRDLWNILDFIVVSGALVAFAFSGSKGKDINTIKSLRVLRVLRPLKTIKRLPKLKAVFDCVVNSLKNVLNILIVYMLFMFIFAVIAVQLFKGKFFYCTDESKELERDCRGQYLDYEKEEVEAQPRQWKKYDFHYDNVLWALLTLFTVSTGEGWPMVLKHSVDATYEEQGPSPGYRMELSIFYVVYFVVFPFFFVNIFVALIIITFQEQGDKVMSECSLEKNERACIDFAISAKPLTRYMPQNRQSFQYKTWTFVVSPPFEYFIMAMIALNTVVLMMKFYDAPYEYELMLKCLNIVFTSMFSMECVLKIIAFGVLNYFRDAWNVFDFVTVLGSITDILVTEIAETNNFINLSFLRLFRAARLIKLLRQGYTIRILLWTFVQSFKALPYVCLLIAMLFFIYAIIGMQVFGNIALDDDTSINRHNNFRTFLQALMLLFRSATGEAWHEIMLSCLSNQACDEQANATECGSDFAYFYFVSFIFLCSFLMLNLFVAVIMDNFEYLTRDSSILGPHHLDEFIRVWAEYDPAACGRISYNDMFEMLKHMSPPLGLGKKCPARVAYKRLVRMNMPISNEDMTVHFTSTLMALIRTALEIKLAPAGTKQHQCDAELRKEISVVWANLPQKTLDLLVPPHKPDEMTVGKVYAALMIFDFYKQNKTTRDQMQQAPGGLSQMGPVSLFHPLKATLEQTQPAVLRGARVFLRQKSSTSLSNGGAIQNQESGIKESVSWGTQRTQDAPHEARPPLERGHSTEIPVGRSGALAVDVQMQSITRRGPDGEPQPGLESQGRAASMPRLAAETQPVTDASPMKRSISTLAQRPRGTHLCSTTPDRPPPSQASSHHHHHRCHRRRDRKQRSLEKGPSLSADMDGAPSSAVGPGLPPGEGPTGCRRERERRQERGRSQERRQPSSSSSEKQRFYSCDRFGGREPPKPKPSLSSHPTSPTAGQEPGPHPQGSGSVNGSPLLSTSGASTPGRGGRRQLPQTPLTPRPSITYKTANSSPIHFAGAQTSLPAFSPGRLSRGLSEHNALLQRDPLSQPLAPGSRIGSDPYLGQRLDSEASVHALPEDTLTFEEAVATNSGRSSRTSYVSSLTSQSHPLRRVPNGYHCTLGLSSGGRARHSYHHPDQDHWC
Sequence (P54289 25-956 partner limits assumed): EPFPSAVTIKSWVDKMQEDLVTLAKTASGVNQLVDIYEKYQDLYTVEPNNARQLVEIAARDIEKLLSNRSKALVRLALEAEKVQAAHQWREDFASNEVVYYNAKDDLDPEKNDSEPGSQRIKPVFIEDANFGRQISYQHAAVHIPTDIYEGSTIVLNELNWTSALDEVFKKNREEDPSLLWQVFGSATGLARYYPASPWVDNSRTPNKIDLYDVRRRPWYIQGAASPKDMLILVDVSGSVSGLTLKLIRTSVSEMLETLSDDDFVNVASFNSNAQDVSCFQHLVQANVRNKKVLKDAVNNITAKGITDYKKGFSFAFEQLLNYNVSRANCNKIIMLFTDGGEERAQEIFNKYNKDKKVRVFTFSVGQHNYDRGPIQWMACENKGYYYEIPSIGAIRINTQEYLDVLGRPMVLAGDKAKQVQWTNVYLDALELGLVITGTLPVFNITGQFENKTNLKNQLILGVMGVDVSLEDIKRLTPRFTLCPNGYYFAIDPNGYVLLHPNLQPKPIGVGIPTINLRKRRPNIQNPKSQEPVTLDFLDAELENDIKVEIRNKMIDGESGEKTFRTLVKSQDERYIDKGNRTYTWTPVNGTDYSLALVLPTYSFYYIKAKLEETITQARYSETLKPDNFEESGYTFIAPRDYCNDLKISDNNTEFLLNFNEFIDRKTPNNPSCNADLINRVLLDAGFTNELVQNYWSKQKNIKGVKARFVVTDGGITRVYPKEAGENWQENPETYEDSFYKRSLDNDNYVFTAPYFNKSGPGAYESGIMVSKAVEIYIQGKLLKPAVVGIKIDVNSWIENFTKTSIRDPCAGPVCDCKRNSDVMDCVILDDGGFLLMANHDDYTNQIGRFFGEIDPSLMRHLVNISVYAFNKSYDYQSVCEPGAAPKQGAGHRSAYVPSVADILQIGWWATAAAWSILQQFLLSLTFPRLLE
Sequence (P54289 957-1103 partner limits assumed): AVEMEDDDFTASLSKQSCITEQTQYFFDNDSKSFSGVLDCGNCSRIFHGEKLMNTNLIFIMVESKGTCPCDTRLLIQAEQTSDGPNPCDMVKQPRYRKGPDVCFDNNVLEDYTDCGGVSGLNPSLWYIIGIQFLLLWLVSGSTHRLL
Sequence (P54284 whole entry partner): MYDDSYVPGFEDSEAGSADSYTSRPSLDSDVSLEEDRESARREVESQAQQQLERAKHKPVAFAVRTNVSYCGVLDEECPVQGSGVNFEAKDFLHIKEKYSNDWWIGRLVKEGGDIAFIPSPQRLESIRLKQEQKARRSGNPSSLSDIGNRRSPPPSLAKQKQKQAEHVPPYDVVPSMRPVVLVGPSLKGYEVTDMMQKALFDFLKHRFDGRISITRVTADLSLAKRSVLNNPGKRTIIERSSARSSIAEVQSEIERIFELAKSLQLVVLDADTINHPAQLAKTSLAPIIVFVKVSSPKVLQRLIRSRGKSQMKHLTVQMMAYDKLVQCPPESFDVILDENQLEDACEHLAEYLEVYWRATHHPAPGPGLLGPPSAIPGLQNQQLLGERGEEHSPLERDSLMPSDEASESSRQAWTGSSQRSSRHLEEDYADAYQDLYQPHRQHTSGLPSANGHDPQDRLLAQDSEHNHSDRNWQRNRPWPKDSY
Test: Assessment of calcium channel activity using FLIPR (Ca2+ influx in IMR32 cells)
Type: cell-based

# Compound, Assay Target, Relational Operator, IC50 [nM]
rows = [
    ("O=C(N[C@H]1CC[C@H]2CN(Cc3ccccc3)C[C@H]21)C(c1ccccc1)C1CCCC1 (relative stereo)", "human Cav2.2 (Homo sapiens, UniProt Q00975)", "=", 920),
    ("O=C(N[C@H]1CC[C@H]2CN(Cc3cccc(C(F)(F)F)c3)C[C@H]21)C(O)(C1CCCCC1)C1CCCCC1", "human Cav2.2 (Homo sapiens, UniProt Q00975)", "=", 510),
    ("CN[C@@H](CC(C)C)C(=O)N[C@H]1CC[C@@H]2CN(c3ccc(F)cc3)C[C@@H]21", "human Cav2.2 (Homo sapiens, UniProt Q00975)", "=", 5310),
    ("O=C(N[C@H]1CC[C@@H]2CN(c3cccc(C(F)(F)F)n3)C[C@@H]21)c1ccc(-c2cccs2)o1", "human Cav2.2 (Homo sapiens, UniProt Q00975)", "=", 1110),
    ("CN[C@H](C(=O)N[C@@H]1CC[C@H]2CN(Cc3ccc(F)cc3)C[C@H]21)C(C)C", "human Cav2.2 (Homo sapiens, UniProt Q00975)", ">", 16400),
    ("CC(C)C(C(=O)N[C@H]1CC[C@@H]2CN(Cc3cccc(C(F)(F)F)c3)C[C@@H]21)C(C)C", "human Cav2.2 (Homo sapiens, UniProt Q00975)", "=", 1630),
    ("O=C(N[C@H]1CC[C@@H]2CN(c3cccc(OC(F)(F)F)c3)C[C@@H]21)[C@@H]1C[C@@H](F)CN1", "human Cav2.2 (Homo sapiens, UniProt Q00975)", "=", 2710),
]

====

Target: UniProt Q00975
Assay: Assessment of calcium channel activity using FLIPR (Ca2+ influx in IMR32 cells)
Type: cell-based
Reported IC50 values follow for various compounds

# Smiles String, IC50
measured = [
    ("FC(F)(F)c1cccc(N2C[C@H]3CC[C@H](NCc4cn[nH]c4)[C@H]3C2)n1", "3.52 µM"),
    ("CN[C@H](CC(C)C)C(=O)N[C@@H]1CC[C@H]2CN(c3ccc(C(F)(F)F)cc3)C[C@H]21", "2.36 µM"),
    ("NC1(C(=O)N[C@H]2CC[C@@H]3CN(c4cccc(C(F)(F)F)n4)C[C@@H]32)CCCC1", "1.45 µM"),
    ("COc1ccc2[nH]cc(CN[C@H]3CC[C@@H]4CN(c5cccc(C(F)(F)F)n5)C[C@@H]43)c2c1", "1.1 µM"),
    ("Cn1c(CN[C@H]2CC[C@@H]3CN(c4cccc(C(F)(F)F)n4)C[C@@H]32)nc2ccccc21", "0.94 µM"),
    ("FC(F)(F)c1cccc(N2C[C@H]3CC[C@H](NCc4c[nH]c5ccccc45)[C@H]3C2)n1", "1.05 µM"),
    ("CC(C)NCC(=O)N[C@H]1CC[C@@H]2CN(c3ccc(C(F)(F)F)cc3)C[C@@H]21", "3.59 µM"),
    ("CC(C)(C)[C@H](N)C(=O)N[C@H]1CC[C@@H]2CN(c3cccc(C(F)(F)F)n3)C[C@@H]21", "0.5 µM"),
    ("Fc1ccc2[nH]cc(CN[C@H]3CC[C@@H]4CN(c5cccc(C(F)(F)F)n5)C[C@@H]43)c2c1", "0.69 µM"),
    ("Fc1ccc2nc(CN[C@H]3CC[C@@H]4CN(c5cccc(C(F)(F)F)n5)C[C@@H]43)[nH]c2c1", "0.61 µM"),
    ("FC(F)(F)c1cccc(N2C[C@H]3CC[C@H](NCc4c[nH]c5ccc(Cl)cc45)[C@H]3C2)n1", "1.66 µM"),
    ("O=C(N[C@@H]1CC[C@H]2CN(Cc3ccccc3)C[C@H]21)[C@@H]1CCCCN1", "> 30 µM"),
    ("CN[C@@H](CC(C)C)C(=O)N[C@H]1CC[C@@H]2CN(c3ccc(F)c(C(F)F)c3)C[C@@H]21", "1.13 µM"),
    ("CCC[C@H](NCC(C)(C)C)C(=O)N[C@H]1CC[C@@H]2CN(S(=O)(=O)c3ccc(C(F)(F)F)cc3)C[C@@H]21", "0.7 µM"),
    ("CC(C)(C)C[C@H](NC(=O)OC(C)(C)C)C(=O)N[C@H]1CC[C@@H]2CN(C(=O)[C@H](CC(C)(C)C)NC(=O)OC(C)(C)C)C[C@@H]21", "2.03 µM"),
]

====

Biological target: human Cav2.2 (Homo sapiens, UniProt Q00975)
Assay: Assessment of calcium channel activity using FLIPR (Ca2+ influx in IMR32 cells)
Assay type: cell-based
Measured Property: log10 of IC50 (log10 of the value in µM)

# Compound, Assay Target, Number
rows = [
    ("O=C(N[C@H]1CC[C@H]2CN(CCCc3cccc(F)c3)C[C@H]21)C(C1CCCCC1)C1CCCCC1", "human Cav2.2 (Homo sapiens, UniProt Q00975)", -0.09),
    ("O=C(N[C@H]1CC[C@@H]2CN(c3ccc(Cl)cc3)C[C@@H]21)[C@@H]1C[C@@H](F)CN1", "human Cav2.2 (Homo sapiens, UniProt Q00975)", 0.93),
    ("CN[C@@H](CC(C)C)C(=O)N[C@H]1CC[C@@H]2CN(c3cnccc3C(F)(F)F)C[C@@H]21", "human Cav2.2 (Homo sapiens, UniProt Q00975)", 0.41),
    ("CN[C@@H](CC(C)C)C(=O)N[C@H]1CC[C@@H]2CN(c3cccc(C)c3)C[C@@H]21", "human Cav2.2 (Homo sapiens, UniProt Q00975)", 0.57),
    ("N[C@H]1CC[C@@H]2CN(c3cccc(C(F)(F)F)c3)C[C@@H]21", "human Cav2.2 (Homo sapiens, UniProt Q00975)", 0.64),
    ("CN[C@H](C(=O)N[C@H]1CC[C@@H]2CN(c3cccc(C(F)(F)F)c3)C[C@@H]21)C(C)C", "human Cav2.2 (Homo sapiens, UniProt Q00975)", 0.05),
    ("O=C(N[C@H]1CC[C@@H]2CN(c3ccc(C(F)(F)F)cn3)C[C@@H]21)[C@@H]1Cc2ccccc2N1", "human Cav2.2 (Homo sapiens, UniProt Q00975)", 0.44),
    ("O=C(N[C@H]1CC[C@@H]2CN(c3cccc(C(F)(F)F)n3)C[C@@H]21)c1cc2cc(F)ccc2[nH]1", "human Cav2.2 (Homo sapiens, UniProt Q00975)", 0.35),
    ("FC(F)(F)c1cccc(N2C[C@H]3CC[C@H](NCc4ccn[nH]4)[C@H]3C2)n1", "human Cav2.2 (Homo sapiens, UniProt Q00975)", 0.28),
    ("Cc1cccc(CN2C[C@@H]3CC[C@H](NC(=O)C(C4CCCCC4)C4CCCCC4)[C@@H]3C2)c1", "human Cav2.2 (Homo sapiens, UniProt Q00975)", -0.07),
    ("Fc1ccc2c(CN[C@H]3CC[C@@H]4CN(c5cccc(C(F)(F)F)n5)C[C@@H]43)c[nH]c2c1", "human Cav2.2 (Homo sapiens, UniProt Q00975)", -0.06),
    ("O=C(N[C@H]1CC[C@@H]2CN(c3cccc(C(F)(F)F)c3F)C[C@@H]21)[C@@H]1C[C@@H](F)CN1", "human Cav2.2 (Homo sapiens, UniProt Q00975)", 0.12),
    ("CCC[C@H](NCC(C)(C)C)C(=O)N[C@@H]1CC[C@H]2CN(S(=O)(=O)c3ccc(C(F)(F)F)cc3)C[C@H]21", "human Cav2.2 (Homo sapiens, UniProt Q00975)", 0.05),
    ("CN[C@@H](CC(C)C)C(=O)N[C@H]1CC[C@@H]2CN(c3ccnc(C(F)(F)F)n3)C[C@@H]21", "human Cav2.2 (Homo sapiens, UniProt Q00975)", 1.08),
    ("CC(C)(C)NC(=O)N[C@H]1CC[C@@H]2CN(c3ccc(OC(F)(F)F)cc3)C[C@@H]21", "human Cav2.2 (Homo sapiens, UniProt Q00975)", 0.63),
    ("O=C(Nc1ccc(Cl)cc1)N[C@H]1CC[C@@H]2CN(c3cccc(C(F)(F)F)n3)C[C@@H]21", "human Cav2.2 (Homo sapiens, UniProt Q00975)", 0.48),
    ("CN[C@@H](CC(C)C)C(=O)N[C@H]1CC[C@@H]2CN(c3ccc(F)c(OC(F)(F)F)c3)C[C@@H]21", "human Cav2.2 (Homo sapiens, UniProt Q00975)", 0.03),
    ("O=C(Nc1ccc(F)c(Cl)c1)N[C@H]1CC[C@@H]2CN(c3cccc(C(F)(F)F)n3)C[C@@H]21", "human Cav2.2 (Homo sapiens, UniProt Q00975)", 0.45),
    ("Cn1nccc1CN[C@H]1CC[C@@H]2CN(c3cccc(C(F)(F)F)n3)C[C@@H]21", "human Cav2.2 (Homo sapiens, UniProt Q00975)", -0.03),
    ("CCCC(C(=O)NC1CCC2CN(Cc3ccc(F)cc3)CC21)N(C)C(=O)OC(C)(C)C (single isomer, unassigned) [Example 318]", "human Cav2.2 (Homo sapiens, UniProt Q00975)", 0.03),
    ("COc1cccc2[nH]cc(CN[C@H]3CC[C@@H]4CN(c5cccc(C(F)(F)F)n5)C[C@@H]43)c12", "human Cav2.2 (Homo sapiens, UniProt Q00975)", -0.09),
    ("FC(F)(F)c1cccc(N2C[C@H]3CC[C@H](NCc4nc(-c5ccc(Cl)cc5)c[nH]4)[C@H]3C2)n1", "human Cav2.2 (Homo sapiens, UniProt Q00975)", 0.55),
    ("CCCC[C@H](NC)C(=O)N[C@H]1CC[C@@H]2CN(c3ccc(C(F)(F)F)cn3)C[C@@H]21", "human Cav2.2 (Homo sapiens, UniProt Q00975)", 0.32),
    ("Cc1c(CN[C@H]2CC[C@@H]3CN(c4cccc(C(F)(F)F)n4)C[C@@H]32)[nH]c2ccccc12", "human Cav2.2 (Homo sapiens, UniProt Q00975)", 0.23),
    ("O=C(N[C@H]1CC[C@@H]2CN(c3cccc(C(F)(F)F)n3)C[C@@H]21)c1ccc(F)c(F)c1", "human Cav2.2 (Homo sapiens, UniProt Q00975)", -0.09),
]
